Measured values drawn from PubChem BioAssay (NCI) for this set.

System: KM12 colon
Test: NCI tumour cell line growth inhibition, 48 h; in the data active = GI50 below about 0.43 µM; inactive = the rest
Form entry, call: pick from active, inactive

// below: answered compounds
INSERT INTO measurements (compound, classification) VALUES
  ('COc1cccc(-c2nn(-c3ccccc3)cc2-c2ccnc(NCCCNC(=O)c3cccc(C(F)(F)F)c3)c2)c1', 'inactive'),
  ('O=[N+]([O-])c1cccc(-c2nc(-c3ccc(Cl)cc3Cl)cn2-c2ccccc2)c1', 'inactive'),
  ('CN(C)C(=O)OCc1nc2c(N3CCOCC3)nc(-c3ccccc3)nc2n1C', 'inactive');

INPUT: Kindly provide the recorded test outcome for the following compound: CCC1C(C)C=NN1c1nc(N)nc(C(C#N)=Nc2ccc(N(C)C)cc2)n1 (stereo unspecified)
OUTPUT: inactive

INPUT: Query: recorded result category for `Cc1ccc(Nc2cc(Cl)c([N+](=O)[O-])cc2[N+](=O)[O-])cc1` in this test
OUTPUT: inactive

INPUT: What did this assay record as the result for `COc1cccc(/C=C/c2nc3c(cnn3-c3ccccc3)c(=O)[nH]2)c1` ?
OUTPUT: inactive

INPUT: # lookup: test call for `O=C1CC[C@H](N2Cc3c(OCc4ccc(CN5CCOCC5)cc4)cccc3C2=O)C(=O)N1`
OUTPUT: inactive

INPUT: Query: recorded result category for `O=C1/C=C/[C@@H](O)[C@@H]2C[C@@H](O)C[C@H]2/C=C/CCC[C@H](CCc2ccc3ncccc3c2)O1` in this test
OUTPUT: active

INPUT: Test call for this compound, please: `Cc1cc(C(=O)Nc2n[nH]c3ccccc23)n[nH]1`
OUTPUT: inactive

* * *

The following compounds are shown together with reported GI50 values.
Test system: SK-MEL-28 melanoma
Test: NCI tumour cell line growth inhibition, 48 h

Field: example entries. Status: answers known.
INSERT INTO assay_data (compound, study_target, assay_result) VALUES
  ('CCCCCCCCCC[C@@H](O)[C@@H]1CC[C@@H]([C@@H]2CC[C@@H]([C@@H](O)CCCCCCCCCC[C@H](O)CC3=CC(C)OC3=O)O2)O1 (stereo partly drawn)', 'SK-MEL-28 melanoma', '5.25 µM'),
  ('CCCOc1cc2ccccc2cc1C(=O)Nc1nc(NC)c2c(ccc3nccc32)[nH]1', 'SK-MEL-28 melanoma', '1.14 µM');

Below: the item to evaluate.
Entry `Cc1c(Cl)c(=O)oc2cc(OC/C=C3\CCC(=O)O3)ccc12` ; GI50 = 19.7 µM

* * *

The reader will find reported GI50 values listed item by item below.
System: 786-0 renal
Assay: NCI tumour cell line growth inhibition, 48 h

INSERT INTO assay_data (compound, study_target, measured_metric, assay_result) VALUES
  ('O=[N+]([O-])c1cccc(-c2nc(-c3ccc(Cl)cc3Cl)cn2-c2ccccc2)c1', '786-0 renal', 'GI50', '995 nM');

Query `CCOC(=O)C(Cc1c[nH]c2cc(N(CCO)CCO)ccc12)(NC(C)=O)C(=O)OCC` yields GI50 of 919000 nM

GI50 in this record for Nc1c(C(=O)Nc2ccccn2)sc2nc3c(cc12)C(O)CCC3 (centres undefined) : 1950 nM

* * *

System: HS 578T breast
Assay: NCI tumour cell line growth inhibition, 48 h; in the data active = GI50 below about 0.43 µM; inactive = the rest
The categories you may choose from are active, inactive

Below, 4 compounds whose answers are already recorded.
INSERT INTO results (compound, study_target, classification) VALUES
  ('Cc1cc(C(=O)Nc2n[nH]c3ccccc23)n[nH]1', 'HS 578T breast', 'inactive'),
  ('NCCCCCNc1noc(Cc2c[nH]c3cc(Br)ccc23)n1', 'HS 578T breast', 'inactive'),
  ('CC1=C(/C=C/C(=O)CC(=O)/C=C/C2=C(C)CCCC2(C)C)C(C)(C)CCC1', 'HS 578T breast', 'inactive'),
  ('C/C=C/C/C=C/[C@H](C)C[C@H](O)[C@@H]1C[C@@H]2O[C@H]2/C=C/[C@@H]2OC(C)(C)O[C@H]2/C=C/C[C@H](C)CC(=O)O1', 'HS 578T breast', 'inactive');

INPUT: What call does the record list for `Nc1nonc1-c1nc2ccccc2n1Cc1ccc(F)cc1` ?
OUTPUT: inactive

INPUT: Outcome? COc1ccc(C(C)c2cc(OC)c(OC)c(OC)c2)cc1 (stereo not given)
OUTPUT: active

INPUT: Dear all, I need the recorded test outcome for `O=C(O)c1cc2ccccc2c2c3c(ccc12)OCO3` , thank you.
OUTPUT: inactive

INPUT: In this assay, the call recorded for N#CC1=C(N)NC(=S)NC1c1ccc(-c2ccc(-c3nc4ccccc4o3)cc2)s1 (stereo not given) was what?
OUTPUT: inactive

INPUT: // outcome(item) with item = `CCCCCCCCCCCCCCCCCCNCc1ccc(Cl)cc1`
OUTPUT: inactive

INPUT: Test call for this compound, please: `COc1ccc(/C(C)=N/NC(=O)CSc2nc3ccccc3c(=O)n2CCc2ccc(S(N)(=O)=O)cc2)cc1`
OUTPUT: inactive

* * *

Tested on: HL-60(TB) leukemia
Assay: NCI tumour cell line growth inhibition, 48 h; in the data active means GI50 below about 0.43 µM; inactive means the rest
Valid outcomes are listed here; reply with one: active, inactive

Look over these answered cases.
INSERT INTO results (smiles_string, study_target, classification) VALUES
  ('Cc1cc(-c2nnc(/C=C/c3ccc4c(c3)OCO4)o2)n[nH]1', 'HL-60(TB) leukemia', 'inactive'),
  ('Cc1ccc(S(=O)(=O)OCC#CCOS(=O)(=O)c2ccc(C)cc2)cc1', 'HL-60(TB) leukemia', 'inactive'),
  ('O=C(Nn1c(-c2cccs2)nc2ccc(I)cc2c1=O)c1ccccc1', 'HL-60(TB) leukemia', 'inactive'),
  ('O=C1CC[C@H](N2Cc3c(OCc4ccc(CN5CCOCC5)cc4)cccc3C2=O)C(=O)N1', 'HL-60(TB) leukemia', 'inactive'),
  ('O=C(CSCC(=O)N/N=C/c1ccccc1O)N/N=C\c1ccccc1O', 'HL-60(TB) leukemia', 'inactive');

INPUT: Recorded test outcome, item `CCCCCCCCCCCCCCCCCCNCc1ccc(Cl)cc1`
OUTPUT: inactive

INPUT: // param item: `COCCOCCOCc1n(Cc2ccc3ccccc3c2)c2ccccc2[n+]1Cc1ccc2ccccc2c1` ; yields the recorded call
OUTPUT: active

* * *

Tested on: UO-31 renal
Assay: NCI tumour cell line growth inhibition, 48 h
We begin with a simple list: items and their reported GI50.

INSERT INTO measurements (smiles_string, assay_result) VALUES
  ('O=C1Nc2cc(-c3cccc(O)c3)ccc2/C1=C/c1ccc[nH]1', '0.359 µM'),
  ('O=C(CSCC(=O)N/N=C/c1ccccc1O)N/N=C\c1ccccc1O', '1.06 µM');

Shifting focus to the molecule that follows.
The reported value for `COCCOCCOCc1n(Cc2ccc3ccccc3c2)c2ccccc2[n+]1Cc1ccc2ccccc2c1` in terms of GI50 is 1.83 µM

* * *

System: MDA-MB-231 breast
Assay: NCI tumour cell line growth inhibition, 48 h; in the data active = GI50 below about 0.43 µM; inactive = the rest
Parameter call: string, one of active, inactive

The examples below pair each entry with its known result.
INSERT INTO assay_data (molecule, study_target, classification) VALUES
  ('Nc1nonc1-c1nc2ccccc2n1Cc1ccc(F)cc1', 'MDA-MB-231 breast', 'inactive'),
  ('Cc1ccc(Nc2cc(Cl)c([N+](=O)[O-])cc2[N+](=O)[O-])cc1', 'MDA-MB-231 breast', 'inactive'),
  ('Nc1ccccc1C#C/C=C\C#CC#C/C=C\C#Cc1ccccc1N', 'MDA-MB-231 breast', 'inactive');

INPUT: How did this test come out for `COc1cccc(-c2nn(-c3ccccc3)cc2-c2ccnc(NCCCNC(=O)c3cccc(C(F)(F)F)c3)c2)c1` ?
OUTPUT: inactive

INPUT: Could you kindly confirm the outcome this assay logged for Nc1c(C(=O)Nc2ccccn2)sc2nc3c(cc12)C(O)CCC3 (centres undefined) ?
OUTPUT: inactive

INPUT: Fill in: this test's call for `Cc1cc(-c2nnc(/C=C/c3ccc4c(c3)OCO4)o2)n[nH]1` is ___
OUTPUT: inactive

INPUT: Query: recorded result category for `C/C=C/C/C=C/[C@H](C)C[C@H](O)[C@@H]1C[C@@H]2O[C@H]2/C=C/[C@@H]2OC(C)(C)O[C@H]2/C=C/C[C@H](C)CC(=O)O1` in this test
OUTPUT: inactive

INPUT: Tell me the assay call for `C[C@]12CC[C@@H]3c4ccc(O)cc4CC[C@H]3[C@@H]1CC[C@@H]2NS(=O)(=O)c1ccc(Br)cc1` please.
OUTPUT: inactive

INPUT: # outcome recorded in this test, key = Nc1ncnc2c1ncn2C1OC(COS(N)(=O)=O)C(O)C1O (centres undefined)
OUTPUT: active

INPUT: Hi team, can someone confirm the assay call for `COc1ccc(/C(C)=N/NC(=O)CSc2nc3ccccc3c(=O)n2CCc2ccc(S(N)(=O)=O)cc2)cc1` ?
OUTPUT: inactive

INPUT: Outcome? N#CC1=C(N)NC(=S)NC1c1ccc(-c2ccc(-c3nc4ccccc4o3)cc2)s1 (centres undefined)
OUTPUT: inactive

INPUT: Test call, this molecule: `COc1cc(Cl)cc(-c2nn(-c3cccc(NC(=O)Nc4cccc(C(F)(F)F)c4)c3)cc2-c2ccncc2)c1`
OUTPUT: inactive

INPUT: Entry `Cc1c(Cl)c(=O)oc2cc(OC/C=C3\CCC(=O)O3)ccc12` : call = ?
OUTPUT: inactive

INPUT: // return assay outcome for `O=C(NCCc1ccccc1)Nc1ccc2cc3ccc(NC(=O)NCCc4ccccc4)cc3nc2c1`
OUTPUT: inactive

INPUT: Test call for this molecule, please: `O=[N+]([O-])c1cccc(-c2nc(-c3ccc(Cl)cc3Cl)cn2-c2ccccc2)c1`
OUTPUT: inactive

INPUT: So what was the verdict on `O=C(O)c1cc2ccccc2c2c3c(ccc12)OCO3` in this test?
OUTPUT: inactive

INPUT: Hi team, can someone confirm the assay call for `O=C(Nc1cccc(-n2cc(-c3ccncc3)c(-c3ccc(O)c(Cl)c3)n2)c1)c1ccc2c(c1)OCCO2` ?
OUTPUT: inactive

INPUT: Would you mind telling me which call this test gave `CSc1ccc2c(c1)C(=O)c1c-2n(CCCN)c(=O)c2cc([N+](=O)[O-])ccc12` ?
OUTPUT: active

INPUT: Field: outcome | Entry: `Cc1ccc(C(=O)c2sc3nc4c(cc3c2N)CCCC4)c(C)c1`
OUTPUT: inactive
